Where do these numbers come from? They come from patent US20260325605A1.

biological target: Kv1.2 (Homo sapiens); construct: expressed in transfected cells; experiment: Patch clamp assay (QPatch), Kv1.2; assay type: cell-based; conditions: QPatch; CHO cells stably expressing human Kv1.2; read-out: Potency IC50, Kv1.2
Sequence (P16389 whole entry): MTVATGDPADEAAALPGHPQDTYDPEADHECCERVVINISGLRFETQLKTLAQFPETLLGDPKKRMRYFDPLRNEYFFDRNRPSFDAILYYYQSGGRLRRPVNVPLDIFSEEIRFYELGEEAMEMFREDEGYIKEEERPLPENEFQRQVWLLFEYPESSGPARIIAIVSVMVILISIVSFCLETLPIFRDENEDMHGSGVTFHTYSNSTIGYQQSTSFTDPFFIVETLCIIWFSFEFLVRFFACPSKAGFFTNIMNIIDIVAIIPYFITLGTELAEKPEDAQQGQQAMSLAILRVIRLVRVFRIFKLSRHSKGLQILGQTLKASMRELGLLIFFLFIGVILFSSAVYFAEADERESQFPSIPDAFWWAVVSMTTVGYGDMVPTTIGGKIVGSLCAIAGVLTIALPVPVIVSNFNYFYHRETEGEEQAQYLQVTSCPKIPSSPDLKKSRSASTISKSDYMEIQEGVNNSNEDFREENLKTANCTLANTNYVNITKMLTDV
Labelling: IC50 reported below 200 nM becomes satisfied; at or above becomes not satisfied.

Query block: is_below(IC50, 200 nM) for H-N[Nle]D[Nle]RC(1)SASVEC(2)KQKC(3)KAIGSIFGKC(1)[Nle]NKKC(2)KC(3)YPR-NH2 [Peptide 50] ?
Result block: satisfied

Query block: For this substance, is IC50 lower than 200 nM? H-PIE[Nle]RC(1)SASVEC(2)KQKC(3)LAAIGSIFGKC(1)[Nle]NKKC(2)KC(3)YPR-OH [Peptide 105]
Result block: not satisfied

Query block: Say whether its IC50 is strictly beneath 200 nM. Entry: H-C(1)SASVEC(2)KQKC(3)LKAIGSIFGKC(1)[Nle]NKKC(2)KC(3)YPR-NH2 [Peptide 108]
Result block: not satisfied

Query block: Please determine if H-N[Nle]D[Nle]RC(1)SASVEC(2)KQKC(3)LKAIGSPFGKC(1)[Nle]NKKC(2)KC(3)YPR-NH2 [Peptide 63] is below 200 nM in terms of IC50.
Result block: not satisfied

Query block: Problem: For the substance H-NMDMRC(1)KASVEC(2)KQKC(3)LKAIGSIFGKC(1)MNKKC(2)KC(3)YPR-NH2 [Peptide 26] , is IC50 under 200 nM?
Result block: satisfied

Query block: Is IC50 of H-NMDMRC(1)SASVEC(2)KQKC(3)LKAYGSIFGKC(1)MNKKC(2)KC(3)YPR-NH2 [Peptide 59] strictly below 200 nM?
Result block: satisfied

Query block: Dear colleague, could you confirm whether IC50 of H-C(1)SASVEC(2)KQKC(3)LKAIGSIFGKC(1)MNKKC(2)KC(3)YPR-OH [Peptide 124] falls below 200 nM? Thanks.
Result block: not satisfied
